Tested on: SK-OV-3 ovarian
Test: NCI tumour cell line growth inhibition, 48 h; in the data active means GI50 below about 0.43 µM; inactive means the rest
The reply should name one outcome from active, inactive

molecule: COc1ccc(C(=O)N2N=C(c3ccc(Br)cc3)CC2c2cn(-c3ccccc3)nc2-c2ccccc2)cc1 (stereo unspecified)
assayed system: SK-OV-3 ovarian
group: inactive

molecule: Fc1cc(-c2csc3n[nH]c(=S)n23)c(Cl)cc1Cl
assayed system: SK-OV-3 ovarian
group: inactive

molecule: Cc1cc2nc(CS)[nH]c2cc1C
assayed system: SK-OV-3 ovarian
group: inactive

molecule: COC(=O)c1oc2c(C(C)=O)c(OCCN3CCOCC3)c(OC)cc2c1C
assayed system: SK-OV-3 ovarian
group: inactive

molecule: C[C@H](Nc1ccc2c(c1)OCCn1cc(N3C(=O)OC[C@H]3C(F)F)nc1-2)C(N)=O
assayed system: SK-OV-3 ovarian
group: active

So what was the verdict on CCOC(=O)c1cnc2c(C)cc(C)cc2c1NCCCN(C)C in this test?
inactive

Repeat with CN(C)c1ccc2nc3ccc(=[N+](C)C)c([N+](=O)[O-])c-3sc2c1
inactive

Repeat with COc1cc(/C=C\c2cc(/C=C\c3ccc(O)c(OC)c3)n(C(=O)COc3ccc(Cl)cc3Cl)n2)ccc1O
inactive

====

Test system: A498 renal
Experiment: NCI tumour cell line growth inhibition, 48 h
Assignment: determine reported TGI for the given molecules.
Numbers only, in µM.

molecule: CCOC(=O)C(=Cc1ccc(-c2ccccc2)cc1)C(=O)OCC
assayed system: A498 renal
quantity unit: µM
recorded result: 12.8
//
molecule: CCOc1cc2ncc(C#N)c(Nc3ccc(F)c(Cl)c3)c2cc1NC(=O)CC1CCSS1 (centres undefined)
assayed system: A498 renal
quantity unit: µM
recorded result: 11.4
//
molecule: CC(C)NC(=O)OCc1c(COC(=O)NC(C)C)n(C)c2c1ccc1ccsc12
assayed system: A498 renal
quantity unit: µM
recorded result: 35.3

Next, consider the following molecule.
Which value of TGI has been reported for CC(=O)O[C@@H]1C(C2CCCCC2)C=[N+]([O-])O[C@@H]1OC1CCCC1(c1ccccc1)c1ccccc1 (some centres undefined) in the records?
17.1

====

Test system: MOLT-4 leukemia
Assay: NCI tumour cell line growth inhibition, 48 h
Assignment: determine reported TGI for the given compounds.

compound: CC(C)(O)C1CC[C@]2(C)CC[C@]3(C)[C@H](CC[C@@H]4[C@@]5(C)CC[C@H](O)C(C)(C)[C@@H]5CC[C@]43C)[C@@H]12 (some centres not stated)
recorded result: > 100 µM

compound: COc1ccc(OC)c(N(CCN2C(=O)c3ccccc3C2=O)C(=O)CCl)c1
recorded result: 37.7 µM

compound: CN(c1nc(=[N+](C)C)ss1)C1CCCCC1
recorded result: > 100 µM

Take each entry in turn and give its TGI.
1. COCC1OC(OC2OCC3OC4(OCC(O)(C(C)OC)C5OCOC54)OC3C2OC)C(OC)C(O)C1OC1OC(C)C(OC)C(OC2OC(C)C3OC4(CC(O)C(OC5CC(OC6CC(C)([N+](=O)[O-])C(OC)C(C)O6)C(OC(=O)c6c(C)c(Cl)c(O)c(Cl)c6OC)C(C)O5)C(C)O4)OC3(C)C2O)C1O (configuration not stated)
2. Cn1ccnc1CCc1ccc(Cl)cc1Cl
3. CC[C@H](C)[C@H](NC(=O)C12CC(NC)(C1)C2)C(=O)N(C)[C@H](C[C@@H](OC(C)=O)c1nc(C(=O)N[C@@H](Cc2ccccc2)C[C@H](C)C(=O)OC)cs1)C(C)C
4. NCCN1C(=O)c2cc(Cl)c(Cl)cc2C1(O)c1ccc(Cl)cc1 (configuration not stated)
5. CC(C)Cn1cnc2c(Sc3c([N+](=O)[O-])ncn3C)nc(N)nc21

1: > 100 µM; 2: > 100 µM; 3: > 25 µM; 4: 5.28 µM; 5: > 100 µM

Take each entry in turn and give its TGI.
1. O=c1cc(-c2ccccc2)oc2cc(OCc3cn(Cc4ccc(F)cc4)nn3)cc(OCc3cn(Cc4ccc(F)cc4)nn3)c12
2. COc1ccc(C2Oc3ccc(O)cc3[C@@H]2C)cc1OC (some centres not stated)
3. COc1cc2c[n+](C)c3c4cc(OC)c(OC)cc4c(OCCCCCCCCOc4cc5c6cc(OC)c(OC)cc6c[n+](C)c5c5cc(OC)c(OC)cc45)cc3c2cc1OC
4. COc1ccc(/C=C/C(=O)c2cc(C(=O)O)c(OC)cc2OC)cc1OC
5. O=C1C(C(Nc2ccccc2)c2ccccc2)=C([O-])c2ccccc21.O=C1C(C(Nc2ccccc2)c2ccccc2)=C([O-])c2ccccc21.[Ni+2] (configuration not stated)

> 100 µM
> 100 µM
> 100 µM
> 100 µM
> 100 µM

Take each entry in turn and give its TGI.
1. COc1ccc(CN(Cc2ccc(OC)cc2)C(=O)CC2(O)CCc3ccccc3C2)cc1 (configuration not stated)
2. O=C(Nc1nc(=S)[nH][nH]1)C(=O)C1C(=O)Nc2ccccc2S1=O (configuration not stated)
3. CCN(C(C)=N)c1ccccc1
4. COc1ccc(/C=C/c2cc(OC)cc(OC)c2)cc1

1: 56 µM; 2: > 100 µM; 3: > 100 µM; 4: > 51 µM
